Target: Mucosa-associated lymphoid tissue lymphoma translocation protein 1 (Homo sapiens, UniProt Q9UDY8)
Sequence (Q9UDY8 whole entry): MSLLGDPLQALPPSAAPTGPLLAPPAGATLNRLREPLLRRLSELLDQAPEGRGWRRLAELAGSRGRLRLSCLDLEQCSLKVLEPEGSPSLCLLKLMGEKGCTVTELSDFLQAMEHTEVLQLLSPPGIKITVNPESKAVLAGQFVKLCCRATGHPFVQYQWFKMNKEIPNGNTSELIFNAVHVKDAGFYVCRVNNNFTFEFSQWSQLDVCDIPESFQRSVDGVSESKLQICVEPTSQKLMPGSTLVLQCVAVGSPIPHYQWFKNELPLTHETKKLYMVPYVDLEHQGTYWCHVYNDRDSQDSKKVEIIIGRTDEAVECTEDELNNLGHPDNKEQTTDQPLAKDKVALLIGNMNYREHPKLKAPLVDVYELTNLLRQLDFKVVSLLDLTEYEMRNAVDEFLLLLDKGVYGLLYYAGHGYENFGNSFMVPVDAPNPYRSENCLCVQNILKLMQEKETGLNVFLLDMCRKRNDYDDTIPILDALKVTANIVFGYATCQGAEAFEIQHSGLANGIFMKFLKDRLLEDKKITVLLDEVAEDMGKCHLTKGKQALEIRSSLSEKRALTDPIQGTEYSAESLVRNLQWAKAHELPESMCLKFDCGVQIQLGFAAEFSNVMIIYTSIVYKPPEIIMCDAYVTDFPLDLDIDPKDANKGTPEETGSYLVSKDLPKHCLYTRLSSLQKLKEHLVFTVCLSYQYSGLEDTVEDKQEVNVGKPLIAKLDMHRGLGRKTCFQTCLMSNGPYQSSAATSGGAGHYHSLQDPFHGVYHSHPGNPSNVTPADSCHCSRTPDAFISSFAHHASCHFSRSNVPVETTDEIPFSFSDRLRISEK
Measured metric: IC50 (nM)
// note: answer is a bare numeric in nM

[
  {
    "Compound": "CN(C(=O)[C@H]1C[C@@H]([S@@+](C)(=N)[O-])C1)[C@@H](c1ccc(N2CCCc3c2cnc2cc(Cl)nn32)cc1)C(F)(F)F [US20250051327, Reference CPD0073223]",
    "IC50 / nM": 57
  },
  {
    "Compound": "COc1ccc2ccc(Nc3ccc([C@H](N(C)C(=O)C4CCS(=O)(=O)CC4)C(F)(F)F)cc3)cc2n1 [US20250051327, Reference CPD0019078]",
    "IC50 / nM": 182
  },
  {
    "Compound": "CN(C(=O)C1CCS(=O)(=O)CC1)[C@@H](c1ccc(N2CCCc3c2cnc2cc(Cl)nn32)nc1)C(F)(F)F [US20250051327, Reference CPD0019212]",
    "IC50 / nM": 313
  },
  {
    "Compound": "CN(C(=O)[C@H]1CCN(C(=O)CC#N)C1)[C@@H](c1ccc(N2CCCc3c2cnc2cc(Cl)nn32)cc1)C(F)(F)F [US20250051327, Reference CPD0073191]",
    "IC50 / nM": 96
  }
]

For the next question, use this compound.
Short answer for CN(C(=O)C1CCS(=O)(=O)CC1)[C@@H](c1ccc(N2CCC3(CC3)c3c2cnc2cc(Cl)nn32)nc1)C(F)(F)F [US20250051327, Reference CPD0021660] : IC50 was 87
